# MEASURED TARGET: human UPF1 (hUPF1) helicase (Homo sapiens, UniProt Q92900)
# Sequence (Q92900 1-1129): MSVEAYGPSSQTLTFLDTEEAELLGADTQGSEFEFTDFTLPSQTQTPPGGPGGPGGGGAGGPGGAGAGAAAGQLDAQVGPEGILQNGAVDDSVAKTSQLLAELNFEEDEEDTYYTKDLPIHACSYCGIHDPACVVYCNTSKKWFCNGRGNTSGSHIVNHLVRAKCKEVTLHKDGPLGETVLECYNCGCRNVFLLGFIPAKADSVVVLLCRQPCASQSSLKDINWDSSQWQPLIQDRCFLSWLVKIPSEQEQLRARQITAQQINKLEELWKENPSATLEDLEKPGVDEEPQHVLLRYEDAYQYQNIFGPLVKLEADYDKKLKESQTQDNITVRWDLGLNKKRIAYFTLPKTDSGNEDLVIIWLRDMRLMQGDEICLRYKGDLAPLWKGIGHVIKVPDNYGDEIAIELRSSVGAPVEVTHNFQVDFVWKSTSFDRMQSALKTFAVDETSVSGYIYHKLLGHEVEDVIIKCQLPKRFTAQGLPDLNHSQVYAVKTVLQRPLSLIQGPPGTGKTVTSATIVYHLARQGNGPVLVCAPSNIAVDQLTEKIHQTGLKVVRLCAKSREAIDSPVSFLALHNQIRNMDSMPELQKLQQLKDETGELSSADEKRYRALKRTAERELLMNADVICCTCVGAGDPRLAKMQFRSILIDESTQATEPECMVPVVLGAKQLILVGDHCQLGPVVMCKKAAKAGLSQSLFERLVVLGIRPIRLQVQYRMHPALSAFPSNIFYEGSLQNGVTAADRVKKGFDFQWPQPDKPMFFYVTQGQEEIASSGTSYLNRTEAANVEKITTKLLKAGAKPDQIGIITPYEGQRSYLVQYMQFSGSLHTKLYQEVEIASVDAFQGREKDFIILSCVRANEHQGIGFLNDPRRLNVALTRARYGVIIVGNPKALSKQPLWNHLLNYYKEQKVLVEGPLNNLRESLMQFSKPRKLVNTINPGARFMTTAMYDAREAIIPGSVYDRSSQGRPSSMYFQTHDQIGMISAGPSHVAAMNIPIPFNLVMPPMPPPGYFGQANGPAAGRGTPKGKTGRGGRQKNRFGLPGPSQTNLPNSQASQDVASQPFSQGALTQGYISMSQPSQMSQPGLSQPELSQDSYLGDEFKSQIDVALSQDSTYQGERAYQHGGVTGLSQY

{"COMPOUND": "Nc1nc(-c2ccc(C(=O)c3ccccc3)cc2)cs1 [Compound 6]", "IC50 / µM": 1750}
{"COMPOUND": "CC(=O)c1ccc(-c2csc(N)n2)cc1 [Compound 2]", "IC50 / µM": 445}
{"COMPOUND": "N#Cc1ccc(-c2csc(N)n2)cc1 [Compound 5]", "IC50 / µM": 289}
{"COMPOUND": "CC(=O)Nc1ccc(-c2csc(N)n2)cc1C1=CCNCC1 [Compound 11]", "IC50 / µM": 576}

* * *

# MEASURED TARGET: FLhPIF1 (full length human PIF1) (Homo sapiens, UniProt Q9H611)
# Construct: Full length human PIF1 (FLhPIF1) was expressed and purified as a His-SUMO fusion; His-SUMO (cleaved yes); made in house; 'following similar protocols' to hPIF1HD (ArcticExpress BL21(DE3) E. coli)
# Sequence (Q9H611 whole entry, the tested form may be a part): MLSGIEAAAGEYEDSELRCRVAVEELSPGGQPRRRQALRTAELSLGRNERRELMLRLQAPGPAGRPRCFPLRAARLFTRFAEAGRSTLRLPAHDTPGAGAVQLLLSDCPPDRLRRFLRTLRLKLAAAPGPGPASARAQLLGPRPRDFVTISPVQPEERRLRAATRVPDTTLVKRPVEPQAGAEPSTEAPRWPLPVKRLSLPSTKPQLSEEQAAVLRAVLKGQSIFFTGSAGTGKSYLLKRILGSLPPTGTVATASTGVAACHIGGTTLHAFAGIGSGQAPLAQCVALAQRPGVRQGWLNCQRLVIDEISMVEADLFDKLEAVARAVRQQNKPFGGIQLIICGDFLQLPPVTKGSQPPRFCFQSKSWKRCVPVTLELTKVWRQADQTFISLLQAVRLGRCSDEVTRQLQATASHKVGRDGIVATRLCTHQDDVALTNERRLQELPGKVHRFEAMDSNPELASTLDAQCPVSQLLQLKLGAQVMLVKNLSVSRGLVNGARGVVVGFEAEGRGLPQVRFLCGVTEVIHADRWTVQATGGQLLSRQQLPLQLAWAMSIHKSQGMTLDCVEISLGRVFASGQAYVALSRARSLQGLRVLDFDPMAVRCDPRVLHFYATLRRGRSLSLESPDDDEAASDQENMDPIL
# ASSAY NOTES: radiometric strand displacement helicase assay, no pre-incubation
# Format: biochemical
# CONDITION NOTES: 1 mM
MEASURED METRIC: inhibition of FLhPIF1 helicase activity in 1 mM single-point screen

{"GIVEN SMILES": "COc1nc(-c2ccc(NC(C)=O)cc2)cs1", "RECORDED MEASUREMENT": "only minimal activity"}
{"GIVEN SMILES": "CC(=O)Nc1ccc(-c2csc(C)n2)cc1", "RECORDED MEASUREMENT": "only minimal activity"}
